Tested on: C. albicans ATCC 10231
Test: Antifungal growth inhibition (OD) screen against C. albicans
Assay type: cell-based
Settings: Candida albicans, ATCC10231, 20 h, read-out: IC50 CA
Method: Dried extracts were resuspended in MeOH to obtain 20 mg/mL sample concentration followed by sonication for complete solubilizing. Ten microliters (10 µL) of the extracts per well were added to 96-well plates followed by drying via centrifugal vacuum concentrator. […] For preliminary screening, extracts from all 30 fungi were evaluated for antimicrobial activities using the highest concentration of 200 µg/mL. […]
pIC50: −log10 of the molar value.
Test readout: pIC50

COc1cc2cc3c(c(O)c2c(O)c1-c1c(OC)cc2cc4c(c(O)c2c1O)C(=O)O[C@H](C)C4)C(=O)O[C@H](C)C3	4.44
